Entries and their % inhibition at 10 nM values follow.
- measured target: human plasma kallikrein (human, UniProt P03952 20-390; P03952 391-638)
- Sequence (P03952 20-390, chain 1 of 2): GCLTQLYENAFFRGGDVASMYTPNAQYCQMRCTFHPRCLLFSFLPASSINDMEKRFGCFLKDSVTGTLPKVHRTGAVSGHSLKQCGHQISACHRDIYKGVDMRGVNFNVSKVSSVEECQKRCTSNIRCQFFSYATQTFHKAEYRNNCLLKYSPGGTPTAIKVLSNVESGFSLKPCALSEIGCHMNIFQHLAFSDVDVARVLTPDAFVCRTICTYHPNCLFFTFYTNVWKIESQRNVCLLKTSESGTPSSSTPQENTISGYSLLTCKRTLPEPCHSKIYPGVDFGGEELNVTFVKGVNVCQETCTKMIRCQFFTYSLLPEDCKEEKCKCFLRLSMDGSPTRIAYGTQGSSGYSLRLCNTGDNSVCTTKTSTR
- Sequence (P03952 391-638, chain 2 of 2): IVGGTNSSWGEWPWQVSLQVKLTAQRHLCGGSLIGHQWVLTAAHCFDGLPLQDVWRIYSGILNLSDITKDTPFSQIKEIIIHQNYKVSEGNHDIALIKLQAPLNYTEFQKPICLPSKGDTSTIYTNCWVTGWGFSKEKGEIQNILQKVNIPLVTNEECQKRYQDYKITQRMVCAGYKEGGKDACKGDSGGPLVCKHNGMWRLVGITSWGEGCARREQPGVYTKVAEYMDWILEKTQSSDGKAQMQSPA
- experimental protocol: cell-based or functional assay
Dear colleague, please return just the value in %, with no unit written.

Worked examples follow.
M202-A04 (Fab, V domains shown) VH: EVQLLESGGGLVQPGGSLRLSCAASGFTFSHYIMMWVRQAPGKGLEWVSGIYSSGGITVYADSVKGRFTISRDNSKNTLYLQMNSLRAEDTAVYYCAYRRKGIPRRDDFDIWGQGTMVTVSS VL: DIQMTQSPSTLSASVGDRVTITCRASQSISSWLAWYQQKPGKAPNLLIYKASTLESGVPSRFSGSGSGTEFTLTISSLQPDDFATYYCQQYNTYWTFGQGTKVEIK    81.2
M202-A08 (Fab, V domains shown) VH: EVQLLESGGGLVQPGGSLRLSCAASGFTFSHYIMMWVRQAPGKGLEWVSGIYSSGGITVYADSVKGRFTISRDNSKNTLYLQMNSLRAEDTAVYYCAYRRTGIPRWDAFDIWGQGTMVTVSS VL: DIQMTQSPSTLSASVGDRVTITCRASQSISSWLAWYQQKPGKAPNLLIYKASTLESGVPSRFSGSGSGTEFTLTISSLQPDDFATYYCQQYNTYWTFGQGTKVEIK    52.9

Value lookup for % inhibition at 10 nM; key = M198-A07 (Fab, V domains shown) VH: EVQLLESGGGLVQPGGSLRLSCAASGFTFSRYQMHWVRQAPGKGLEWVSWISPSGGITGYADSVKGRFTISRDNSKNTLYLQMNSLRAEDTAVYYCAYRRTGIPRRDAFDIWGQGTMVTVSS VL: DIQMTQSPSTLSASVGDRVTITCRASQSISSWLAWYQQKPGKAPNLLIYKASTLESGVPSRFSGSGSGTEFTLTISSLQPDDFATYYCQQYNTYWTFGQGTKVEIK
86.1
